Readings of IC50 for the listed compounds
- target.system: GALK (Homo sapiens (Human), UniProt P51570)
- Sequence (P51570 whole entry): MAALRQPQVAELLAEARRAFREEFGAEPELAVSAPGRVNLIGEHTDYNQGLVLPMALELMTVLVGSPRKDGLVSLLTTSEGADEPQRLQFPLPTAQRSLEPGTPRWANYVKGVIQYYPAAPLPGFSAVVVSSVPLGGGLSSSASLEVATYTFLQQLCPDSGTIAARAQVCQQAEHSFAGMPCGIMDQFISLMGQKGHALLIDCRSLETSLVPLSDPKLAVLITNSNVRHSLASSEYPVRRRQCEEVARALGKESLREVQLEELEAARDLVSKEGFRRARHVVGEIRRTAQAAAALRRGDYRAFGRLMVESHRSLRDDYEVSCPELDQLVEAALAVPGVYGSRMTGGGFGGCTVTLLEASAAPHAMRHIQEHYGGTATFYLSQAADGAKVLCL
Return type: number; implicit unit µM.

Answered cases to consult:
| compound | unit.string | IC50 |
| --- | --- | --- |
| O=C1CCCC2=C1C(c1ccncc1)N=C(Nc1nc3ccccc3o1)N2 (stereo not drawn) | µM | 42.1 |
| O=C1CCCC2=C1C(c1cccc(Cl)c1)N=C(Nc1nc3ccccc3o1)N2 (stereo not drawn) | µM | 61.1 |
| O=C1CCCC2=C1C(c1cccnc1Br)N=C(Nc1nc3ccccc3o1)N2 (stereo not drawn) | µM | 14.6 |

Lab note: record IC50 of O=C1CCCC2=C1C(c1n[nH]cc1Br)N=C(Nc1nc3ccccc3o1)N2 (stereo not drawn) tested on GALK (Homo sapiens (Human), UniProt P51570).
2.91

Lab note: record IC50 of COc1cccc(C2N=C(Nc3nc4ccccc4o3)NC3=C2C(=O)CCC3)c1 (stereo not drawn) tested on GALK (Homo sapiens (Human), UniProt P51570).
18.8

Lab note: record IC50 of Cc1ccsc1C1N=C(Nc2nc3ccccc3o2)NC2=C1C(=O)CCC2 (stereo not drawn) tested on GALK (Homo sapiens (Human), UniProt P51570).
9.19

These entries and their values trace back to patent US9447087B2.
